Recorded matureLeafNecrosis (Dev.) by entry
Tested on: Arabidopsis thaliana plants
protocol: SOA1 phenotypic analysis of herbicide-treated Arabidopsis plants
Assay type: in vivo
measurementContext: numeric value standardized to mock treated plants
quantityKind: matureLeafNecrosis (Dev.)

INSERT INTO results (compound, tgt, quantitykind, assayresult) VALUES
  ('c1cc[n+]2c(c1)-c1cccc[n+]1CC2', 'Arabidopsis thaliana plants', 'matureLeafNecrosis (Dev.)', 4),
  ('CN(C)C(=O)Nc1ccc(Cl)c(Cl)c1', 'Arabidopsis thaliana plants', 'matureLeafNecrosis (Dev.)', 4),
  ('O=C(O)CNCP(=O)(O)O [Glyphosate]', 'Arabidopsis thaliana plants', 'matureLeafNecrosis (Dev.)', 3),
  ('O=C(O)COc1ccc(Cl)cc1Cl', 'Arabidopsis thaliana plants', 'matureLeafNecrosis (Dev.)', 0),
  ('CP(=O)(O)CCC(N)C(=O)O (centres unmarked) [Glufosinate]', 'Arabidopsis thaliana plants', 'matureLeafNecrosis (Dev.)', 0);

====

Tested on: Arabidopsis thaliana plants
protocol: SOA1 phenotypic analysis of herbicide-treated Arabidopsis plants
Assay type: in vivo
measurementContext: in words
quantityKind: characteristic symptoms (morphological phenotype)

INSERT INTO assay_data (compound, assayresult) VALUES
  ('O=C(O)c1cc(Oc2ccc(C(F)(F)F)cc2Cl)ccc1[N+](=O)[O-]', 'Necrotic leaf flecks'),
  ('COC(=O)c1cc(Oc2ccc(Cl)cc2Cl)ccc1[N+](=O)[O-]', 'Necrotic leaf flecks');

====

# Lookup of reported Symptom Class keyed by entry
Test system: Arabidopsis thaliana plants
protocol: SOA1 phenotypic analysis of herbicide-treated Arabidopsis plants
Type: in vivo
measurementContext: Arabidopsis sprayed with herbicide, phenotypes of the classes pictured in FIG. 12
quantityKind: Symptom Class

INSERT INTO measurements (compound, quantitykind, assayresult) VALUES
  ('O=C(O)CNCP(=O)(O)O [Glyphosate]', 'Symptom Class', 4),
  ('CP(=O)(O)CCC(N)C(=O)O (stereo not drawn) [Glufosinate]', 'Symptom Class', 3),
  ('CN(C)C(=O)Nc1ccc(Cl)c(Cl)c1', 'Symptom Class', 7),
  ('C[n+]1ccc(-c2cc[n+](C)cc2)cc1', 'Symptom Class', 7),
  ('O=C(O)COc1ccc(Cl)cc1Cl', 'Symptom Class', 5),
  ('c1cc[n+]2c(c1)-c1cccc[n+]1CC2', 'Symptom Class', 7);

====

Measured leafTwisting (Dev.), listed per entry for reference.
Tested on: Arabidopsis thaliana plants
protocol: SOA1 phenotypic analysis of herbicide-treated Arabidopsis plants
Assay type: in vivo
measurementContext: numeric value standardized to mock treated plants
quantityKind: leafTwisting (Dev.)

INSERT INTO measurements (compound, quantitykind, assayresult) VALUES
  ('O=C(O)CNCP(=O)(O)O [Glyphosate]', 'leafTwisting (Dev.)', 0),
  ('CN(C)C(=O)Nc1ccc(Cl)c(Cl)c1', 'leafTwisting (Dev.)', 0),
  ('O=C(O)COc1ccc(Cl)cc1Cl', 'leafTwisting (Dev.)', 2),
  ('CP(=O)(O)CCC(N)C(=O)O (centres unmarked) [Glufosinate]', 'leafTwisting (Dev.)', 1),
  ('c1cc[n+]2c(c1)-c1cccc[n+]1CC2', 'leafTwisting (Dev.)', 0);

====

Tested on: Arabidopsis thaliana plants
protocol: SOA1 phenotypic analysis of herbicide-treated Arabidopsis plants
Type: in vivo
measurementContext: numeric value standardized to mock treated plants
quantityKind: newLeafAnthocyanins (Dev.)

INSERT INTO results (compound, tgt, quantitykind, assayresult) VALUES
  ('O=C(O)CNCP(=O)(O)O [Glyphosate]', 'Arabidopsis thaliana plants', 'newLeafAnthocyanins (Dev.)', 1),
  ('CP(=O)(O)CCC(N)C(=O)O (centres unmarked) [Glufosinate]', 'Arabidopsis thaliana plants', 'newLeafAnthocyanins (Dev.)', 0),
  ('c1cc[n+]2c(c1)-c1cccc[n+]1CC2', 'Arabidopsis thaliana plants', 'newLeafAnthocyanins (Dev.)', 0),
  ('CN(C)C(=O)Nc1ccc(Cl)c(Cl)c1', 'Arabidopsis thaliana plants', 'newLeafAnthocyanins (Dev.)', 0),
  ('O=C(O)COc1ccc(Cl)cc1Cl', 'Arabidopsis thaliana plants', 'newLeafAnthocyanins (Dev.)', 0);
